# Tested on: DU-145
# EXPERIMENT NOTES: Growth inhibition of human DU145 cells at 10^-5 M incubated for 48 hrs by sulforhodamine B assay
# Assay type: functional
# CONDITION INFO: DU-145, 48 h, read-out: GI
ASSAY METRIC: inhibition of growth at 10 µM (%)

MOLECULE	ASSAY METRIC	OBSERVED RESULT
O=C1/C(=C\c2cccc([N+](=O)[O-])c2)Sc2ccc(Cl)cc21	inhibition of growth at 10 µM	-3.94
O=C1/C(=C\c2cccc(Br)c2)Sc2ccc(Cl)cc21	inhibition of growth at 10 µM	-12.3
O=C1/C(=C\c2ccccc2O)Sc2ccc(Cl)cc21	inhibition of growth at 10 µM	-12.3
O=C1Nc2c(sc3ccc(Cl)cc23)C(c2cccc([N+](=O)[O-])c2)N1 (centres undefined)	inhibition of growth at 10 µM	-4.61
O=[N+]([O-])c1cccc(C2NC(N3CCOCC3)=Nc3c2sc2ccc(Cl)cc32)c1 (centres undefined)	inhibition of growth at 10 µM	-13.7
O=C1SC2=Nc3c(sc4ccc(Cl)cc34)C(c3ccc4ccccc4c3)N2C1=O (centres undefined)	inhibition of growth at 10 µM	-1.57
O=C1/C(=C\c2ccc3ccccc3c2)Sc2ccc(Cl)cc21	inhibition of growth at 10 µM	-10.2
O=C1CC(=O)N(C2=Nc3c(sc4ccc(Cl)cc34)C(c3cccc([N+](=O)[O-])c3)N2)N1 (centres undefined)	inhibition of growth at 10 µM	-15.1
NNC1=Nc2c(sc3ccc(Cl)cc23)C(c2cccc([N+](=O)[O-])c2)N1 (centres undefined)	inhibition of growth at 10 µM	-9.18

---

Documented inhibition of growth at 10 µM across a set of compounds
# System: M14
# EXPERIMENT NOTES: Growth inhibition of human M14 cells at 10^-5 M incubated for 48 hrs by sulforhodamine B assay
# Format: functional
# CONDITION INFO: M14, 48 h, read-out: GI

COMPOUND	READOUT UNITS	inhibition of growth at 10 µM
O=C1Nc2c(sc3ccc(Cl)cc23)C(c2ccccc2O)N1 (stereo not drawn)	%	2.49
O=C1/C(=C\c2ccc3ccccc3c2)Sc2ccc(Cl)cc21	%	3.18
NC(=O)CSC1=Nc2c(sc3ccc(Cl)cc23)C(c2cccc([N+](=O)[O-])c2)N1 (stereo not drawn)	%	-2.31
O=C1Nc2c(sc3ccc(Cl)cc23)C(c2cccc([N+](=O)[O-])c2)N1 (stereo not drawn)	%	2.62
S=C1Nc2c(sc3ccc(Cl)cc23)C(c2cccc(Br)c2)N1 (stereo not drawn)	%	6.42
N=C1Nc2c(sc3ccc(Cl)cc23)C(c2ccccc2O)N1 (stereo not drawn)	%	1.39
O=[N+]([O-])c1cccc(C2c3sc4ccc(Cl)cc4c3N=C3NN=CN32)c1 (stereo not drawn)	%	-2.02
O=C1/C(=C\c2cccc([N+](=O)[O-])c2)Sc2ccc(Cl)cc21	%	4.61
S=C1Nc2c(sc3ccc(Cl)cc23)C(c2ccc3ccccc3c2)N1 (stereo not drawn)	%	7.85
O=C1CC(=O)N(C2=Nc3c(sc4ccc(Cl)cc34)C(c3cccc([N+](=O)[O-])c3)N2)N1 (stereo not drawn)	%	-11.3
O=[N+]([O-])c1cccc(C2c3sc4ccc(Cl)cc4c3N=C3NN=C(c4cccc(F)c4)N32)c1 (stereo not drawn)	%	-2.52
O=C1Nc2c(sc3ccc(Cl)cc23)C(c2ccc3ccccc3c2)N1 (stereo not drawn)	%	6.72
O=C1Nc2c(sc3ccc(Cl)cc23)C(c2cccc(Br)c2)N1 (stereo not drawn)	%	1.96

---

Documented inhibition of growth at 10 µM across a set of compounds
# Tested on: TK-10
# EXPERIMENT NOTES: Growth inhibition of human TK10 cells at 10^-5 M incubated for 48 hrs by sulforhodamine B assay
# Format: functional
# CONDITION INFO: TK-10, 48 h, read-out: GI
ASSAY METRIC: inhibition of growth at 10 µM

COMPOUND	ASSAY METRIC	OBSERVED RESULT
O=[N+]([O-])c1cccc(C2NC(=S)Nc3c2sc2ccc(Cl)cc32)c1 (stereo not given)	inhibition of growth at 10 µM	-6.1%
O=C1/C(=C\c2ccc3ccccc3c2)Sc2ccc(Cl)cc21	inhibition of growth at 10 µM	-5.61%
O=C1/C(=C\c2cccc(Br)c2)Sc2ccc(Cl)cc21	inhibition of growth at 10 µM	-29.1%
S=C1Nc2c(sc3ccc(Cl)cc23)C(c2cccc(Br)c2)N1 (stereo not given)	inhibition of growth at 10 µM	-18.3%
N=C1Nc2c(sc3ccc(Cl)cc23)C(c2ccc3ccccc3c2)N1 (stereo not given)	inhibition of growth at 10 µM	30.2%
O=C1Nc2c(sc3ccc(Cl)cc23)C(c2ccc3ccccc3c2)N1 (stereo not given)	inhibition of growth at 10 µM	15.4%
O=[N+]([O-])c1cccc(C2c3sc4ccc(Cl)cc4c3N=C3NN=NN32)c1 (stereo not given)	inhibition of growth at 10 µM	35.8%
O=C1CSC2=Nc3c(sc4ccc(Cl)cc34)C(c3cccc([N+](=O)[O-])c3)N12 (stereo not given)	inhibition of growth at 10 µM	-14.8%
O=[N+]([O-])c1cccc(C2NC(N3CCOCC3)=Nc3c2sc2ccc(Cl)cc32)c1 (stereo not given)	inhibition of growth at 10 µM	-10.7%
O=C1/C(=C\c2ccccc2O)Sc2ccc(Cl)cc21	inhibition of growth at 10 µM	-16%

---

# Tested on: CCRF-CEM
# EXPERIMENT NOTES: Growth inhibition of human CCRF-CEM cells at 10^-5 M incubated for 48 hrs by sulforhodamine B assay
# Format: functional
# CONDITION INFO: read-out: GI
Documented inhibition of growth at 10 µM across a set of compounds

COMPOUND	inhibition of growth at 10 µM [%]
O=[N+]([O-])c1cccc(C2c3sc4ccc(Cl)cc4c3N=C3NN=C(c4cccc(F)c4)N32)c1 (stereo unspecified)	-19.6
O=C1CC(=O)N(C2=Nc3c(sc4ccc(Cl)cc34)C(c3cccc([N+](=O)[O-])c3)N2)N1 (stereo unspecified)	-32.1
O=[N+]([O-])c1cccc(C2NC(=S)Nc3c2sc2ccc(Cl)cc32)c1 (stereo unspecified)	-11.8
N=C1Nc2c(sc3ccc(Cl)cc23)C(c2ccc3ccccc3c2)N1 (stereo unspecified)	-3.9
O=C1SC2=Nc3c(sc4ccc(Cl)cc34)C(c3ccc4ccccc4c3)N2C1=O (stereo unspecified)	-5.01
S=C1Nc2c(sc3ccc(Cl)cc23)C(c2ccc3ccccc3c2)N1 (stereo unspecified)	-3.09
O=[N+]([O-])c1cccc(C2NC(N3CCOCC3)=Nc3c2sc2ccc(Cl)cc32)c1 (stereo unspecified)	-3.36
O=C1Nc2c(sc3ccc(Cl)cc23)C(c2ccccc2O)N1 (stereo unspecified)	-4.19
O=C1CSC2=Nc3c(sc4ccc(Cl)cc34)C(c3cccc([N+](=O)[O-])c3)N12 (stereo unspecified)	-12
N#Cc1cnn(C2=Nc3c(sc4ccc(Cl)cc34)C(c3cccc([N+](=O)[O-])c3)N2)c1N (stereo unspecified)	-11.9
O=C1/C(=C\c2cccc(Br)c2)Sc2ccc(Cl)cc21	-14.5
N=C1Nc2c(sc3ccc(Cl)cc23)C(c2ccccc2O)N1 (stereo unspecified)	-8.23
Cc1cc(C)n(C2=Nc3c(sc4ccc(Cl)cc34)C(c3cccc([N+](=O)[O-])c3)N2)n1 (stereo unspecified)	-7.22
NNC1=Nc2c(sc3ccc(Cl)cc23)C(c2cccc([N+](=O)[O-])c2)N1 (stereo unspecified)	-19.8
O=C1Nc2c(sc3ccc(Cl)cc23)C(c2cccc(Br)c2)N1 (stereo unspecified)	-14.4
N=C1Nc2c(sc3ccc(Cl)cc23)C(c2cccc([N+](=O)[O-])c2)N1 (stereo unspecified)	8.41
N=C1Nc2c(sc3ccc(Cl)cc23)C(c2cccc(Br)c2)N1 (stereo unspecified)	-20.7
Oc1ccccc1C1NC(=S)Nc2c1sc1ccc(Cl)cc21 (stereo unspecified)	-4.86
O=C1Nc2c(sc3ccc(Cl)cc23)C(c2cccc([N+](=O)[O-])c2)N1 (stereo unspecified)	-13.9
O=C1CSC2=Nc3c(sc4ccc(Cl)cc34)C(c3ccc4ccccc4c3)N12 (stereo unspecified)	-4.04
O=C1/C(=C\c2ccccc2O)Sc2ccc(Cl)cc21	-1.92

---

Documented inhibition of growth at 10 µM across a set of molecules
# Test system: OVCAR-4
# EXPERIMENT NOTES: Growth inhibition of human OVCAR4 cells at 10^-5 M incubated for 48 hrs by sulforhodamine B assay
# Assay type: functional
# CONDITION INFO: OVCAR-4, 48 h, read-out: GI
ASSAY METRIC: inhibition of growth at 10 µM (%)

MOLECULE	ASSAY METRIC	OBSERVED RESULT
O=C1/C(=C\c2ccc3ccccc3c2)Sc2ccc(Cl)cc21	inhibition of growth at 10 µM	12.3
O=C1CSC2=Nc3c(sc4ccc(Cl)cc34)C(c3cccc([N+](=O)[O-])c3)N12 (stereo unspecified)	inhibition of growth at 10 µM	2.1
NNC1=Nc2c(sc3ccc(Cl)cc23)C(c2cccc([N+](=O)[O-])c2)N1 (stereo unspecified)	inhibition of growth at 10 µM	1.81
O=[N+]([O-])c1cccc(C2c3sc4ccc(Cl)cc4c3N=C3NN=C(c4cccc(F)c4)N32)c1 (stereo unspecified)	inhibition of growth at 10 µM	0.57
N=C1Nc2c(sc3ccc(Cl)cc23)C(c2ccccc2O)N1 (stereo unspecified)	inhibition of growth at 10 µM	12.3
O=C1Nc2c(sc3ccc(Cl)cc23)C(c2cccc([N+](=O)[O-])c2)N1 (stereo unspecified)	inhibition of growth at 10 µM	7.21
O=[N+]([O-])c1cccc(C2NC(N3CCOCC3)=Nc3c2sc2ccc(Cl)cc32)c1 (stereo unspecified)	inhibition of growth at 10 µM	1.77
O=[N+]([O-])c1cccc(C2c3sc4ccc(Cl)cc4c3N=C3NN=CN32)c1 (stereo unspecified)	inhibition of growth at 10 µM	0.93
N=C1Nc2c(sc3ccc(Cl)cc23)C(c2cccc(Br)c2)N1 (stereo unspecified)	inhibition of growth at 10 µM	6.46
O=C1CSC2=Nc3c(sc4ccc(Cl)cc34)C(c3ccc4ccccc4c3)N12 (stereo unspecified)	inhibition of growth at 10 µM	3.47
O=C1CC(=O)N(C2=Nc3c(sc4ccc(Cl)cc34)C(c3cccc([N+](=O)[O-])c3)N2)N1 (stereo unspecified)	inhibition of growth at 10 µM	-11.5
N=C1Nc2c(sc3ccc(Cl)cc23)C(c2ccc3ccccc3c2)N1 (stereo unspecified)	inhibition of growth at 10 µM	6.63
Oc1ccccc1C1NC(=S)Nc2c1sc1ccc(Cl)cc21 (stereo unspecified)	inhibition of growth at 10 µM	7.52
Cc1cc(C)n(C2=Nc3c(sc4ccc(Cl)cc34)C(c3cccc([N+](=O)[O-])c3)N2)n1 (stereo unspecified)	inhibition of growth at 10 µM	-2.96
O=C1/C(=C\c2ccccc2O)Sc2ccc(Cl)cc21	inhibition of growth at 10 µM	1.63
O=C1Nc2c(sc3ccc(Cl)cc23)C(c2ccccc2O)N1 (stereo unspecified)	inhibition of growth at 10 µM	9.71
S=C1Nc2c(sc3ccc(Cl)cc23)C(c2ccc3ccccc3c2)N1 (stereo unspecified)	inhibition of growth at 10 µM	11
N=C1Nc2c(sc3ccc(Cl)cc23)C(c2cccc([N+](=O)[O-])c2)N1 (stereo unspecified)	inhibition of growth at 10 µM	-4.7
O=[N+]([O-])c1cccc(C2c3sc4ccc(Cl)cc4c3N=C3NN=NN32)c1 (stereo unspecified)	inhibition of growth at 10 µM	-6.3
O=C1SC2=Nc3c(sc4ccc(Cl)cc34)C(c3ccc4ccccc4c3)N2C1=O (stereo unspecified)	inhibition of growth at 10 µM	23.6
NC(=O)CSC1=Nc2c(sc3ccc(Cl)cc23)C(c2cccc([N+](=O)[O-])c2)N1 (stereo unspecified)	inhibition of growth at 10 µM	-4.84
